# METHOD_NOTES: in vitro
# MEASUREMENT_PARAMETERS: African green monkey
PROPERTY: CC50 (µM)
Numbers only, in µM.

Per the record, CCCCn1c(=O)c2ccc(NCCO)cc2c2cc(C(O)(C(F)(F)F)C(F)(F)F)ccc21 [NR-31] has CC50 of 17.6

* * *

# System: SARS-CoV-2 (WK-521)
# METHOD_NOTES: microbe, parasite or virus in culture
# Type: cell-based
# MEASUREMENT_PARAMETERS: Severe acute respiratory syndrome coronavirus 2, HEK-293T, 72 h; read-out: IC50 (concentration of agent which reduces viral production and replication by 50%)
Kindly supply the reported IC50 values for the records listed here.
One number for each entry, in nM.

Answered examples (2):
CC(C)Cn1c(=O)c2ccc(NCCO)cc2c2cc(C(O)(C(F)(F)F)C(F)(F)F)ccc21 [NR-91] = 510
CCCCn1c(=O)c2cc(NC=O)ccc2c2cc(C(O)(C(F)(F)F)C(F)(F)F)ccc21 [NR-86] = 80

Dear colleague, could you send me IC50 for each of the items below? Thanks.
1. CCCCn1c(=O)c2cc(NC(=O)NCCO)ccc2c2cc(C(O)(C(F)(F)F)C(F)(F)F)ccc21 [NR-72]
2. CCCCn1c(=O)c2ccc(N)c(SC)c2c2cc(C(O)(C(F)(F)F)C(F)(F)F)ccc21 [NR-87]

*A*
620
850

FYI, the data here is from patent US20250026734A1.
